Tested on: NCI-H716 cells
ASSAY_NAME: cells
Format: cell-based, Human
DETAILS: Homo sapiens, NCI-H716; read-out: GLP 1 Secretion

| MOLECULE | ASSAY_TARGET | EC50 |
| --- | --- | --- |
| OC[C@H]1O[C@@H](n2cnc3c(S)ncnc32)[C@H](O)[C@@H]1O [Thioinosine] | NCI-H716 cells | > 10 µM |
| O=C1c2c(O)cccc2Cc2cccc(O)c21 [Anthralin] | NCI-H716 cells | > 10 µM |
| O=c1[nH]c(=O)n([C@H]2C[C@H](O)[C@@H](CO)O2)cc1I [idoxuridine] | NCI-H716 cells | > 10 µM |
| COC(=O)Nc1nc2ccc(C(=O)c3cccs3)cc2[nH]1 [Nocodazole] | NCI-H716 cells | > 10 µM |
| COP(=S)(OC)Oc1ccc(Sc2ccc(OP(=S)(OC)OC)cc2)cc1 [temephos] | NCI-H716 cells | > 10 µM |
| CCC(C)(C)C(=O)O[C@H]1C[C@@H](C)C=C2C=C[C@H](C)[C@H](CC[C@@H]3C[C@@H](O)CC(=O)O3)[C@H]21 [simvastatin, reference compound] | NCI-H716 cells | 3.29 µM |

Cited source for all entries: paper PMC4503722
